Cited source: patent US5990170A

assay: Solubility in water and organic solvents; settings: dmso, organic solvent or mixture
test readout: solubility

- CCCCCCCCCCCC(=O)N[C@@H](C)[C@H](O)c1ccccc1 [Example 8, N-lauroyl-[(1R,2S)-(-)-norephedrine]]: > 10000 µg/mL

Moving on to the next compound.
Lab note: CCCCCCCCCCCCCCCC(=O)N[C@H](CO)c1ccccc1 [Example 2] gave solubility of > 10000 µg/mL

* * *

test system: RBL-2H3 cells; experiment: Inhibition of 3H-serotonin release induced by ADNP/DNP-HSA immunogenic stimulation in RBL-2H3 cells; assay type: cell-based, rat; settings: Rattus norvegicus, RBL-2H3, read-out: EC50, concentration inhibiting by 50% the net release of 3H serotonin, 0.2% DMSO; 15 minutes release period (Table 9)
This section presents molecules with their documented pEC50 values.
Note: pEC50 values are expressed as the negative base-10 logarithm of concentration in M.

Lab note: CCCCCCCCCCCCCCCC(=O)NCC(O)c1ccccc1 (centres unmarked) gave pEC50 of 5.92

Lab note: CCCCCCCCCCCC(=O)NCCCCO [Example 18, N-(4-hydroxybutyl)-lauroylamide] gave pEC50 of 4.20

Lab note: `CCCCCCCCCCCCCCCC(=O)N1CCOCC1` gave pEC50 of 4.38

Lab note: CCCCCCCCCCCCCCCC(=O)N[C@@H](C)CO [Example 31, N-palmitoyl-[S(+)-2-amino-1-propanol]] gave pEC50 of 5.11

Lab note: `CCCCCCCCCCCCCCCC(=O)N[C@@H](CO)[C@@H](O)c1ccccc1` gave pEC50 of 4.11
